The values you see were collected from paper PMC8745178.

TARGET DESC: UniProt P43166
Sequence (P43166 whole entry): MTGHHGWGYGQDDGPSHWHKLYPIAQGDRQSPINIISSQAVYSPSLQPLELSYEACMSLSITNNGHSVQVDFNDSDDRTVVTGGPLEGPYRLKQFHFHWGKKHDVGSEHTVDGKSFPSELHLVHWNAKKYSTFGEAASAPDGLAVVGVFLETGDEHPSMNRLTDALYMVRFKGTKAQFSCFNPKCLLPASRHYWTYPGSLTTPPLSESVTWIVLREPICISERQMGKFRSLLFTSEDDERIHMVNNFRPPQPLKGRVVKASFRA
TEST NAME: fluorescent thermal shift assay (FTSA), CAVII
Type: binding
CONDITION DESCRIPTION: converted from Kd_obs, 37 °C, pH 7.0, FTSA
MEASURED METRIC: ΔGobs CAVII (kcal/mol)
Field format: number, assumed kcal/mol, no unit text.

Solved cases (6 shown):
>>> observed_measurement("COC(=O)c1cc(S(N)(=O)=O)c(Br)cc1S(=O)(=O)c1ccccc1 [Compound 10a]")
-13
>>> observed_measurement("COC(=O)c1cc(S(N)(=O)=O)c(SCCc2ccccc2)cc1Cl")
-9.94
>>> observed_measurement("COC(=O)c1cc(S(N)(=O)=O)c(SCc2ccccc2)cc1Cl")
-9.68
>>> observed_measurement("COC(=O)c1cc(S(N)(=O)=O)c(Cl)cc1Sc1cccc2ccccc12")
-8.46
>>> observed_measurement("COC(=O)c1cc(S(N)(=O)=O)c(Cl)cc1SCc1ccccc1")
-9.8
>>> observed_measurement("COC(=O)c1cc(S(N)(=O)=O)c(Cl)cc1S(=O)(=O)CCc1ccccc1")
-12.9

Recorded ΔGobs CAVII for COC(=O)c1cc(S(N)(=O)=O)c(Br)cc1Br [Compound 2, Methyl 2,4-dibromo-5-sulfamoyl-benzoate] with UniProt P43166, please? -10.3

* * *

TARGET DESC: CAXIV (Homo sapiens, UniProt Q9ULX7)
Sequence (Q9ULX7 16-337): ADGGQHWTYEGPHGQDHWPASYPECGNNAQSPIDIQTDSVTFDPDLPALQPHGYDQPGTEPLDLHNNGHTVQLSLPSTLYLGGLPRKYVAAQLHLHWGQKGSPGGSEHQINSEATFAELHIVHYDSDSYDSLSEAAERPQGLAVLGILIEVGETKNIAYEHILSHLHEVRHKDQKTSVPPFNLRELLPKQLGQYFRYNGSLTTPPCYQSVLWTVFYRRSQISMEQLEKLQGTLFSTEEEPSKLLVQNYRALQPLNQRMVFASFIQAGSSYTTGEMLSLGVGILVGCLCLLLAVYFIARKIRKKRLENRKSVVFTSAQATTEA
TEST NAME: fluorescent thermal shift assay (FTSA), CAXIV
Assay type: binding
CONDITION DESCRIPTION: converted from Kd_obs, 37 °C, pH 7.0, FTSA
Tick class 1 if ΔGobs CAXIV is -40 kJ/mol or greater. Tick class 0 if ΔGobs CAXIV is less than -40 kJ/mol.

For this compound, is measured ΔGobs CAXIV -40 kJ/mol or higher? COC(=O)c1cc(S(N)(=O)=O)c(S(=O)(=O)CCc2ccccc2)cc1Cl class 1

Moving on to the next compound: COC(=O)c1cc(S(N)(=O)=O)c(S(=O)(=O)C2CCCCC2)cc1Cl class 1

* * *

# Lookup of reported ΔGintr CAVB keyed by entry
TARGET DESC: UniProt:Q9Y2D0
Sequence (Q9Y2D0 34-317): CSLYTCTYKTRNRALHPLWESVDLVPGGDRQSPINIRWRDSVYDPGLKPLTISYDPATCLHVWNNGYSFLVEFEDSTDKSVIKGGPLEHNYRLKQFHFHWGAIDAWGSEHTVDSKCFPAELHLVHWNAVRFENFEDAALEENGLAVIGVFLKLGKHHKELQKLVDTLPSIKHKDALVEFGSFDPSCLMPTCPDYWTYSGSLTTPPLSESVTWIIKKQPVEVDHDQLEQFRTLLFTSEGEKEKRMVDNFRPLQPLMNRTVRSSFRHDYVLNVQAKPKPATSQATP
TEST NAME: fluorescent thermal shift assay (FTSA), CAVB
Assay type: binding
CONDITION DESCRIPTION: converted from Kd_intr, 37 °C, independent of pH
Write it as a number; the unit kcal/mol goes unstated.

Example molecules with recorded ΔGintr CAVB:
>>> observed_measurement("COC(=O)c1cc(S(N)(=O)=O)c(S(=O)(=O)C2CCCCC2)cc1Cl")
-10.1
>>> observed_measurement("COC(=O)c1cc(S(N)(=O)=O)c(Cl)cc1Sc1ccccc1")
-13.2
>>> observed_measurement("COC(=O)c1cc(S(N)(=O)=O)c(SC2CCCCC2)cc1Br")
-11.9

Which measured ΔGintr CAVB value corresponds to COC(=O)c1cc(S(N)(=O)=O)c(Br)cc1Br [Compound 2, Methyl 2,4-dibromo-5-sulfamoyl-benzoate] ? -13.6

* * *

TARGET DESC: CAXII (Homo sapiens, UniProt O43570)
Sequence (O43570 25-354): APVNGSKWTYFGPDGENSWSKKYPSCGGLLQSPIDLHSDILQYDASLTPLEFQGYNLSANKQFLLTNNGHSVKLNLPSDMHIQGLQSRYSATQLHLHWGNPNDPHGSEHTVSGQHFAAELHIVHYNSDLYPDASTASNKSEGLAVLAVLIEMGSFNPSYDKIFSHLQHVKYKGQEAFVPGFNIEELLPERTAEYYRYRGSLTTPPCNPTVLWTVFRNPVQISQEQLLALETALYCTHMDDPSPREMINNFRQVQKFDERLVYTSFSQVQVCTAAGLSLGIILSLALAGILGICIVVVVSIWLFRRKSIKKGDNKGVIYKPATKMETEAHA
TEST NAME: fluorescent thermal shift assay (FTSA), CAXII
Format: binding
CONDITION DESCRIPTION: converted from Kd_obs, 37 °C, pH 7.0, FTSA
Each entry below carries its reported ΔGobs CAXII.
Just the number in kcal/mol, nothing appended.

>>> observed_measurement("COC(=O)c1cc(S(N)(=O)=O)c(Cl)cc1SCc1ccccc1")
-9.08
>>> observed_measurement("COC(=O)c1cc(S(N)(=O)=O)c(Cl)cc1Cl [Compound 1, Methyl 2,4-dichloro-5-sulfamoyl-benzoate]")
-8.87

Next:
Consider the compound shown here: COC(=O)c1cc(S(N)(=O)=O)c(Br)cc1Br [Compound 2, Methyl 2,4-dibromo-5-sulfamoyl-benzoate] What is its recorded ΔGobs CAXII? -9.2
